Test system: HCV 1b-BB7 subgenomic replicon
PROTOCOL_DETAILS: microbe, parasite or virus in culture
Assay type: cell-based, HCV genotype 1b
STUDY_CONDITIONS: Hepatitis C virus, stable replicon, strain 1b BB7, 5% FBS, no human plasma; read-out: 1b BB7 5% FBS EC50
EXPERIMENTAL_READOUT: EC50 (nM)
The response must be a number in nM with no trailing unit.

// solved cases for EC50 follow
[
  {
    "COMPOUND": "CC(C)(O)C(O)CCN(c1cc2oc(-c3ccc(F)cc3)c(-c3ncc[nH]3)c2cc1C1CC1)S(C)(=O)=O (centres unmarked) [Example 84]",
    "EC50 [nM]": 14.1
  },
  {
    "COMPOUND": "CC(C)(C)Oc1ncc(-c2ncc(CN(c3ccc4c(-c5ncc[nH]5)c(-c5ccccc5)oc4c3)S(C)(=O)=O)s2)c(OC(C)(C)C)n1 [Example 27]",
    "EC50 [nM]": 75
  }
]

For reference, reported EC50 for COCCN(c1cc2oc(-c3ccc(F)cc3)c(-c3ncc[nH]3)c2cc1C1CC1)S(C)(=O)=O [Example 47] stands at 25.6

Noted for CS(=O)(=O)N(CCCF)c1cc2oc(-c3ccc(F)cc3)c(-c3ncc[nH]3)c2cc1C1CC1 [Example 85] : its EC50 reads 9.8

Record CS(=O)(=O)N(CC1CC1)c1cc2oc(-c3ccc(F)cc3)c(-c3ncc[nH]3)c2cc1C1CC1 [Example 53] . Reported EC50: 52

The compound listed as CN(C)CCCN(c1cc2oc(-c3ccc(F)cc3)c(C3=NOCCN3)c2cc1C1CC1)S(C)(=O)=O [Example 127] has a reported EC50 of 21

Kindly note the recorded EC50 for Cn1cc(-c2ncc(CN(c3ccc4c(-c5ncc[nH]5)c(-c5ccccc5)oc4c3)S(C)(=O)=O)s2)cn1 [Example 26] , which is 15

Entry under test: CS(=O)(=O)N(CCCC(=O)O)c1cc2oc(-c3ccc(F)cc3)c(C3=NOCN3)c2cc1C1CC1 [Example 157] . Its EC50 was 94.2

Notebook: CS(=O)(=O)N(CCCC(=O)O)c1cc2oc(-c3ccc(F)cc3)c(C3=NOCCN3)c2cc1C1CC1 [Example 135] , EC50 read as 783

# compound [2H]C([2H])(CCCCC)N(c1cc2oc(-c3ccc(F)cc3)c(-c3ncc[nH]3)c2cc1C1CC1)S(C)(=O)=O [Example 113] ; its EC50 = 28

Reported EC50 for CC[S+]([O-])CCN(c1cc2oc(-c3ccc(F)cc3)c(C3=NOCCN3)c2cc1C1CC1)S(C)(=O)=O (centres unmarked) [Example 141] was 31

Kindly note the recorded EC50 for COc1ccc(CN(c2cc3oc(-c4ccc(F)cc4)c(C4=NOCC(=O)N4)c3cc2C2CC2)S(C)(=O)=O)cc1 [Example 160] , which is 604

EC50 in this record for CC(C)=CCCN(c1cc2oc(-c3ccc(F)cc3)c(-c3ncc[nH]3)c2cc1C1CC1)S(C)(=O)=O [Example 76] : 26.9

The compound identified as CC(C)CN(c1cc2oc(-c3ccc(F)cc3)c(-c3ncc[nH]3)c2cc1C1CC1)S(C)(=O)=O [Example 66] registered its EC50 at 56.4

Measured EC50, CC(=O)OCCCCCN(c1cc2oc(-c3ccc(F)cc3)c(-c3ncc[nH]3)c2cc1C1CC1)S(C)(=O)=O [Example 46] : 4.7

The compound listed as CS(=O)(=O)N(CCCC(=O)N1CCOCC1)c1cc2oc(-c3ccc(F)cc3)c(-c3ncc[nH]3)c2cc1C1CC1 [Example 103] shows EC50 equal to 13.9

Summary for this compound, CS(=O)(=O)N(CCCCC(F)=C(F)F)c1cc2oc(-c3ccc(F)cc3)c(C3=NOCCN3)c2cc1C1CC1 [Example 120] : EC50 is 18

The reported EC50 of the compound CS(=O)(=O)N(CCCS(=O)(=O)c1ccccc1)c1cc2oc(-c3ccc(F)cc3)c(-c3ncc[nH]3)c2cc1C1CC1 [Example 90] was 6

Lab note: Cc1c[nH]c(-c2c(-c3ccc(F)cc3)oc3cc(N(CCO)S(C)(=O)=O)c(C4CC4)cc23)n1 [Example 189] gave EC50 of 114

Sample Cn1cnc2ccc(-c3ncc(CN(c4ccc5c(-c6ncc[nH]6)c(-c6ccccc6)oc5c4)S(C)(=O)=O)s3)cc21 [Example 30] ; EC50 observed: 4

Lab note: CC(C)(O)CCN(c1cc2oc(-c3ccc(F)cc3)c(C3=NOCCN3)c2cc1C1CC1)S(C)(=O)=O [Example 125] gave EC50 of 20

Field EC50 (entry CC(C)N(c1cc2oc(-c3ccc(F)cc3)c(-c3ncc[nH]3)c2cc1C1CC1)S(C)(=O)=O [Example 52] ) reads 114

Given item COCCCN(c1cc2oc(-c3ccc(F)cc3)c(-c3ncc[nH]3)c2cc1C1CC1)S(C)(=O)=O [Example 69] , the value recorded as its EC50 is 6.6
